System: 496974-208-R-J2-PDC complex spheroids, growth % test/control;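 also: spheroids exposed to the drugs for 7 days before readout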
Test Description: Anticancer human tumor 496974-208-R-J2-PDC patient-derived pancreatic carcinoma cell line growth inhibition [CLK]; active = viability on the fitted dose curve at most 10% of control; inactive = the rest
Setup Conditions: second compound 0.316 µM; first compound 1 µM
Outcome field: choose from active, inactive

Molecule	Assigned Label
C#Cc1c(F)ccc2cc(O)cc(-c3ncc4c(N5CC6CCC(C5)N6)nc(OCC56CCCN5CC(F)C6)nc4c3F)c12 (stereo not drawn) + CN1CCN(c2cc(C(=O)Nc3cc4cc(-c5cnn(C)c5)ccc4cn3)ccn2)CC1	active
Nc1ccccc1NC(=O)c1ccc(CNC(=O)OCc2cccnc2)cc1 + CNC(=O)c1ccc(Nc2nc(OC3CCCC3)c3c(-c4ccc5nc(C)oc5c4)c[nH]c3n2)c(OC)c1	inactive

Could you now look at the following molecule, please?
Ask: Please share the test call associated with CC(Nc1ccc2c(c1)OCCn1cc(N3C(=O)OCC3C(F)F)nc1-2)C(N)=O (stereo not drawn) + CNC(=O)c1ccc(Nc2nc(OC3CCCC3)c3c(-c4ccc5nc(C)oc5c4)c[nH]c3n2)c(OC)c1 .
Result: inactive
